Value source: patent US10208021B2

Measured pKi, listed per entry.
- assay.target: purified human Factor XIa (Homo sapiens (Human))
- Sequence (P03951 388-625): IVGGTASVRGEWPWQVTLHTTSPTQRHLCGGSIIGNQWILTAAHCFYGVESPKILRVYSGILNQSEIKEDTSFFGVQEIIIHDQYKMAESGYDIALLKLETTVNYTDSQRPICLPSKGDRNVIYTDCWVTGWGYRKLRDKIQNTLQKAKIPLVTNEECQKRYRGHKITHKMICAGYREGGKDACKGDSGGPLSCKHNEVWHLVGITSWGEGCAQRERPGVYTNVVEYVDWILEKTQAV
- Sequence (P03951 19-387 partner): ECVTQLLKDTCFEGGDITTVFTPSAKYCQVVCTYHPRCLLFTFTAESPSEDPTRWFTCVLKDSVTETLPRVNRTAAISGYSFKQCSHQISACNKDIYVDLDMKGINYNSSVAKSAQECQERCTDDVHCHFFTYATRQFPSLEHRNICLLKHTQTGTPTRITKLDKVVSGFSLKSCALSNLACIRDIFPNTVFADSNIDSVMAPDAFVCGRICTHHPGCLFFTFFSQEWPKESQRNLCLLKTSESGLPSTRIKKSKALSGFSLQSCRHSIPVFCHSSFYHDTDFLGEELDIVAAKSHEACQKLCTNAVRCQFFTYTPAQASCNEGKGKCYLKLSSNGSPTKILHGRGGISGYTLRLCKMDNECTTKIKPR
- assay.comment: Factor XIa chromogenic substrate (S-2366) inhibition assay
- Format: biochemical
- protocol.conditions: substrate S-2366, activity ranges, Table A
pKi: −log10 of the molar value.

compound	pKi
CN1CCN(c2cccc3c2CCN(C(=O)/C=C/c2c(-n4cnnn4)ccc(Cl)c2F)C3C(=O)Nc2ccc3cn[nH]c3c2)CC1 (stereo not drawn)	> 8.30
CC(C)OC(=O)c1ccc(NC(=O)C2c3cccc(N4CCC(N5CCCC5)CC4)c3CCN2C(=O)/C=C/c2c(-n3cnnn3)ccc(Cl)c2F)cc1 (racemic)	> 8.30

Continue with the compound presented below.
In: Look up pKi for this compound: CN(C)C1CCN(c2cccc3c2CCN(C(=O)/C=C/c2c(F)cccc2C(F)(F)F)C3C(=O)Nc2ccc(C(=O)O)cc2)CC1 (racemic)
Out: 8.00 to 8.30

###

- assay.target: UniProt:P03951
- assay.comment: Factor XIa chromogenic substrate (S-2366) inhibition assay
- Format: biochemical
- protocol.conditions: substrate S-2366, activity ranges, Table A
observable: Ki

Consider the worked cases shown below.
compound	observable	recorded.result
CCOC(=O)c1ccc(NC(=O)[C@@H]2c3cccc(N4CCC(N(C)C)CC4)c3CCN2C(=O)/C=C/c2c(-n3cnnn3)ccc(Cl)c2F)cc1	Ki	< 5 nM
CC(=O)c1ccc(Cl)c(F)c1/C=C/C(=O)N1CCc2c(cccc2N2CCC(C(=O)N(C)C)CC2)C1C(=O)Nc1ccc(C(=O)O)cc1 (racemic)	Ki	< 5 nM

In: Ki lookup needed for O=C(Nc1ccc(F)cc1)C1c2cccc(N3CCC(N4CCCC4)CC3)c2CCN1C(=O)C=Cc1c(-n2cnnn2)ccc(Cl)c1F (centres unmarked) , thanks.
Out: < 5 nM

In: Could you tell me which Ki is on file for N#Cc1ccc(NC(=O)C2c3cccc(N4CCNCC4)c3CCN2C(=O)/C=C/c2c(-n3cnnn3)ccc(Cl)c2F)cc1 (centres unmarked) ?
Out: 5 to 10 nM

In: // Ki lookup, key: COC(=O)N[C@H]1CC[C@H](NC(=O)C2c3cccc(N4CCC(N5CCCC5)CC4)c3CCN2C(=O)/C=C/c2c(-n3cnnn3)ccc(Cl)c2F)CC1 (mixture of isomers)
Out: 5 to 10 nM
